Exercise: for every item that follows, state its recorded IC50.
# assay-system: Dual specificity calcium/calmodulin-dependent 3',5'-cyclic nucleotide phosphodiesterase 1C (Homo sapiens, UniProt Q14123)
# Sequence (Q14123 whole entry, the tested form may be a part): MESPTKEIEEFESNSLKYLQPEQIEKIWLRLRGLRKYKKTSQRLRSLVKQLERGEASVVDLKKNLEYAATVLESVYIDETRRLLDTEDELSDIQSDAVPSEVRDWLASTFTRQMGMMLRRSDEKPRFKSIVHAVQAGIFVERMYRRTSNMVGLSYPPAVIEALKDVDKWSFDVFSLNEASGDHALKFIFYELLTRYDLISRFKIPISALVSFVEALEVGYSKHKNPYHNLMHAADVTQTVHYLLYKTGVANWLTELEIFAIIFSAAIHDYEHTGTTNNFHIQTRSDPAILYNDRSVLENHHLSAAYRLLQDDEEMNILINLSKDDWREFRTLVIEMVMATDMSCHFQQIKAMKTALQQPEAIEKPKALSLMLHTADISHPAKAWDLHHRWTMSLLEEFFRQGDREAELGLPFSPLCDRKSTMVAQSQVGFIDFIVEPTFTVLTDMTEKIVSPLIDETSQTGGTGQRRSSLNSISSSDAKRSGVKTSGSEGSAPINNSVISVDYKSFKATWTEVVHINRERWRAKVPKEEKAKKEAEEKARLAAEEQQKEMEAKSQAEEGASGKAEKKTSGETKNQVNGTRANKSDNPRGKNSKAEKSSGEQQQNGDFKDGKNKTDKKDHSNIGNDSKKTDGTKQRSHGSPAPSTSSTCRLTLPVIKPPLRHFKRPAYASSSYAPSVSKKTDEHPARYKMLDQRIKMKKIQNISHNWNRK
# method-description: Inhibition of PDE1C2 (147 to 531 residues) (unknown origin) using 3H-cGMP as substrate incubated for 15 mins by liquid scintillation counter analysis
Numeric answer only, unit µM assumed.

Reported IC50 for COc1ccc(C2C(C(=O)OCC3CCCC3)=C(C)NC(=O)N2C(=O)OCC2CCCC2)cc1OC (stereo not drawn) : what is it?
0.042

Reported IC50 for CC1=C(C(=O)OCC2CCCCC2)C(c2ccc(OC(F)F)c(OCC3CC3)c2)N(C(=O)SCc2ccccc2)C(=O)N1 (stereo not drawn) : what is it?
0.01

Reported IC50 for CC1=C(C(=O)OCC2CCCCC2)C(c2ccc(Cl)nc2)N(C(=O)OCC2CCCCC2)C(=O)N1 (stereo not drawn) : what is it?
0.195

Reported IC50 for CC1=C(C(=O)OCC2CCCCC2)C(c2ccc(OC(F)F)cc2)N(C(=O)SCc2ccccc2)C(=O)N1 (stereo not drawn) : what is it?
0.021

Reported IC50 for CC1=C(C(=O)OCC2CCCCC2)C(c2cccc(OCC3CC3)c2)N(C(=O)SCc2ccccc2)C(=O)N1 (stereo not drawn) : what is it?
0.042

Reported IC50 for CC1=C(C(=O)OCC2CCCCC2)C(c2ccc(OC(F)F)c(OC(F)F)c2)N(C(=O)OCC2CCCCC2)C(=O)N1 (stereo not drawn) : what is it?
0.0075

Reported IC50 for CC1=C(C(=O)OCC2CCCCC2)C(c2cccc(Oc3ccccc3)c2)NC(=O)N1 (stereo not drawn) : what is it?
2.94

Reported IC50 for CC(=O)N1C(=O)NC(C)=C(C(=O)OCC2CCCCC2)C1c1ccc(OC(F)F)c(OCC2CC2)c1 (stereo not drawn) : what is it?
2.33

Reported IC50 for COC(=O)C1=C(C)NC(=O)N(C(=O)SCc2ccccc2)C1c1ccc(OC(F)F)c(OCC2CC2)c1 (stereo not drawn) : what is it?
0.103

Reported IC50 for COc1ccc(C2C(C(=O)OCc3ccccc3)=C(C)NC(=O)N2C(=O)OCc2ccccc2)cc1OC (stereo not drawn) : what is it?
0.063

Reported IC50 for COC(=O)C1=C(C)NC(=O)N(C(=O)OCC2CCCCC2)C1c1ccc(OC(F)F)c(OCC2CC2)c1 (stereo not drawn) : what is it?
0.037

Reported IC50 for CC1=C(C(=O)OCC2CCCCC2)C(c2ccc(OC(F)F)c(OCC3CC3)c2)N(C(=O)/C=C/c2ccccc2)C(=O)N1 (stereo not drawn) : what is it?
6.06

Reported IC50 for CC1=C(C(=O)OCC2CCCCC2)C(c2ccc(OC(F)F)c(OCC3CC3)c2)N(C(=O)OCC2CCCCC2)C(=O)N1 (stereo not drawn) : what is it?
0.0023

====

Exercise: for every item that follows, state its recorded half-life at 1.5 µM.
# method-description: Half life in rat liver microsomes at 1.5 uM
# Assay type: ADME, Microsome
Numeric answer only, unit min assumed.

Reported half-life at 1.5 µM for CC1=C(C(=O)OCC2CCCCC2)C(c2ccc(OC(F)F)c(OCC3CC3)c2)N(C(=S)Oc2ccccc2)C(=O)N1 (stereo unspecified) : what is it?
6.1

Reported half-life at 1.5 µM for CC1=C(C(=O)OCC2CCCCC2)C(c2ccc(OC(F)F)cc2)N(C(=O)SCc2ccccc2)C(=O)N1 (stereo unspecified) : what is it?
7.1

Reported half-life at 1.5 µM for CC1=C(C(=O)OCC2CCCCC2)C(c2ccc(OC(F)F)c(OC(F)F)c2)N(C(=O)OCC2CCCCC2)C(=O)N1 (stereo unspecified) : what is it?
3.03

Reported half-life at 1.5 µM for CC1=C(C(=O)OCC2CCCCC2)C(c2ccc(OC(F)F)c(OCC3CC3)c2)N(C(=O)OCC2CCCCC2)C(=O)N1 (stereo unspecified) : what is it?
3.68

Reported half-life at 1.5 µM for CC1=C(C(=O)OCC2CCCCC2)C(c2ccc(OC(F)F)c(OCC3CC3)c2)N(C(=O)SCc2ccccc2)C(=O)N1 (stereo unspecified) : what is it?
14.1

Reported half-life at 1.5 µM for COc1ccc(C2C(C(=O)OCC3CCCCC3)=C(C)NC(=O)N2C(=O)OCC2CCCCC2)cc1OC (stereo unspecified) : what is it?
2.1

====

measurement-kind: IC50

Request: IC50, test system Cytochrome P450 1A2 (Homo sapiens, UniProt P05177), entry CC1=C(C(=O)OCC2CCCCC2)C(c2ccc(OC(F)F)c(OCC3CC3)c2)N(C(=O)SCc2ccccc2)C(=O)N1 (stereo unspecified)
> 25 µM

====

# method-description: Half life in Sprague-Dawley rat at 2.5 mg/kg,iv administration
# Format: ADME, organism-based
# conditions: in vivo
measurement-kind: half-life (min)
Numeric answer only, unit min assumed.

Reported half-life for CC1=C(C(=O)OCC2CCCCC2)C(c2ccc(OC(F)F)c(OCC3CC3)c2)N(C(=O)SCc2ccccc2)C(=O)N1 (stereo unspecified) : what is it?
451

====

# assay-system: High affinity cAMP-specific and IBMX-insensitive 3',5'-cyclic phosphodiesterase 8A (Homo sapiens)
measurement-kind: pIC50
# reply with the number alone; pIC50 is -log10 of concentration in mol/L

Reported pIC50 for CC1=C(C(=O)OCC2CCCCC2)C(c2ccc(OC(F)F)c(OCC3CC3)c2)N(C(=O)SCc2ccccc2)C(=O)N1 (stereo unspecified) : what is it?
5.75

====

# assay-system: Voltage-gated inwardly rectifying potassium channel KCNH2 (Homo sapiens, UniProt Q12809)
# Sequence (Q12809 whole entry): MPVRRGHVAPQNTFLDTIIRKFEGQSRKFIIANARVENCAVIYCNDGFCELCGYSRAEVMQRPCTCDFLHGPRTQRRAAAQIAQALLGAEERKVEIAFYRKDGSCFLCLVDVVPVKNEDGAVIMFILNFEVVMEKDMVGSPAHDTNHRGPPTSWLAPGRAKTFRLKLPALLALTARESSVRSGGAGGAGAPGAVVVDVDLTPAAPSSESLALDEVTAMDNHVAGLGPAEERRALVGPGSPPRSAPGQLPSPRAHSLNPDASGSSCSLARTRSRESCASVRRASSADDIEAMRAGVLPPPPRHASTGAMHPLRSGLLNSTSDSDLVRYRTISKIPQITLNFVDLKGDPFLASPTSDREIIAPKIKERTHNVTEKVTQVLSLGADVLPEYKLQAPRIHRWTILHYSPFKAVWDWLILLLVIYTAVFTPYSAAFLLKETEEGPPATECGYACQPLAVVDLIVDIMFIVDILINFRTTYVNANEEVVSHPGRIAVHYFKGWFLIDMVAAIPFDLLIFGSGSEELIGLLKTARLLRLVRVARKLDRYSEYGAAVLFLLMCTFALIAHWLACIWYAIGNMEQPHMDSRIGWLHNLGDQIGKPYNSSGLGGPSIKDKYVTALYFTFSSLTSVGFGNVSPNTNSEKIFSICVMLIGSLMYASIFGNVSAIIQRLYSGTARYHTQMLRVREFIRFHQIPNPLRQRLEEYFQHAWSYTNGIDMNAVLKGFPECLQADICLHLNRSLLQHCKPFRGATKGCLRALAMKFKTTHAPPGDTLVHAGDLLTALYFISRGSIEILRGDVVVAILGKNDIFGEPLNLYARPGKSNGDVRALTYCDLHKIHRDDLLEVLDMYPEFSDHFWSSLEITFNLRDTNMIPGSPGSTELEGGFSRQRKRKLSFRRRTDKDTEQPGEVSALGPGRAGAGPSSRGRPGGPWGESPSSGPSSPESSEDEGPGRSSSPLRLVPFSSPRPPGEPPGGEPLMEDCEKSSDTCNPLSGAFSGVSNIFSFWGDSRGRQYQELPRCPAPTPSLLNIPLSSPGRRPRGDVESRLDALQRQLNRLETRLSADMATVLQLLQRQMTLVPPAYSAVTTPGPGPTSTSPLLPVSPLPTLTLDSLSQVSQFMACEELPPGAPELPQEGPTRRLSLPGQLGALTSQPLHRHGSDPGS
# method-description: Inhibition of hERG expressed in CHO cells by automated patch clamp electrophysiology analysis
pIC50: −log10 of the molar value.
measurement-kind: pIC50

Request: pIC50, test system Voltage-gated inwardly rectifying potassium channel KCNH2 (Homo sapiens, UniProt Q12809), entry CC1=C(C(=O)OCC2CCCCC2)C(c2ccc(OC(F)F)c(OCC3CC3)c2)N(C(=O)SCc2ccccc2)C(=O)N1 (stereo unspecified)
< 4.40

====

# assay-system: UniProt Q14432
# Sequence (Q14432 whole entry): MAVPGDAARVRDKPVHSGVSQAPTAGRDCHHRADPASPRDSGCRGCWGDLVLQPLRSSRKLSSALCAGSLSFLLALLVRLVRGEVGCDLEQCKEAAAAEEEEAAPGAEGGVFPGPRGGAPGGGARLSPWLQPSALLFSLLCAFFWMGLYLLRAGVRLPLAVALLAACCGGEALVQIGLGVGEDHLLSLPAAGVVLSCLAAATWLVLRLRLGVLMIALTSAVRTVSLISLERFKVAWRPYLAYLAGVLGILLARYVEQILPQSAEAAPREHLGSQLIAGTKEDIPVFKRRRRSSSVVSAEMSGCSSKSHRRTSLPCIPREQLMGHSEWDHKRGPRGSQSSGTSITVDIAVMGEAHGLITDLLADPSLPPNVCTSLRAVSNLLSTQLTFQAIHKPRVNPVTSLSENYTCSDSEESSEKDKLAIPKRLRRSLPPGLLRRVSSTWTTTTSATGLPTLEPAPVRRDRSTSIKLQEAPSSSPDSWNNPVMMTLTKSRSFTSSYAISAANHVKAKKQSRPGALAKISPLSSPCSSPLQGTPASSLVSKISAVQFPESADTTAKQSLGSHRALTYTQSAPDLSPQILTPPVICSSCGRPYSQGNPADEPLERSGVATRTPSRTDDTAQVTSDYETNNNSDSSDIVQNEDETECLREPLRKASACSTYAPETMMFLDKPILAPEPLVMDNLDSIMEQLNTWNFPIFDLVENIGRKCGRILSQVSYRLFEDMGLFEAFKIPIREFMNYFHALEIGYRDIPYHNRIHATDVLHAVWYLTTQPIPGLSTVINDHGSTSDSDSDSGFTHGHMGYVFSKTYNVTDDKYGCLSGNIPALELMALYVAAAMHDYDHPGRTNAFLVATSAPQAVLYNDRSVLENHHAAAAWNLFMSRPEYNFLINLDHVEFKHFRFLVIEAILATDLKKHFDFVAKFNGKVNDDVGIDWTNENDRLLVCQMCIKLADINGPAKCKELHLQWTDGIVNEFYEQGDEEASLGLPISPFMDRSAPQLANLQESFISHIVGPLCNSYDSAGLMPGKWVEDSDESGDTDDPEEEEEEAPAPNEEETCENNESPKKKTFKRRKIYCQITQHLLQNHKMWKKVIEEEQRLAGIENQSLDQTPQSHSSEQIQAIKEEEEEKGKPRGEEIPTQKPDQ
pIC50: −log10 of the molar value.
measurement-kind: pIC50

Reported pIC50 for CC1=C(C(=O)OCC2CCCCC2)C(c2ccc(OC(F)F)c(OCC3CC3)c2)N(C(=O)SCc2ccccc2)C(=O)N1 (stereo unspecified) : what is it?
< 5.30

====

pIC50: −log10 of the molar value.
measurement-kind: pIC50

Request: pIC50, test system High affinity 3',5'-cyclic-AMP phosphodiesterase 7A (Homo sapiens, UniProt Q13946), entry CC1=C(C(=O)OCC2CCCCC2)C(c2ccc(OC(F)F)c(OCC3CC3)c2)N(C(=O)SCc2ccccc2)C(=O)N1 (stereo unspecified)
< 5.30

====

# assay-system: Cytochrome P450 2C9 (Homo sapiens)
# Sequence (P11712 whole entry): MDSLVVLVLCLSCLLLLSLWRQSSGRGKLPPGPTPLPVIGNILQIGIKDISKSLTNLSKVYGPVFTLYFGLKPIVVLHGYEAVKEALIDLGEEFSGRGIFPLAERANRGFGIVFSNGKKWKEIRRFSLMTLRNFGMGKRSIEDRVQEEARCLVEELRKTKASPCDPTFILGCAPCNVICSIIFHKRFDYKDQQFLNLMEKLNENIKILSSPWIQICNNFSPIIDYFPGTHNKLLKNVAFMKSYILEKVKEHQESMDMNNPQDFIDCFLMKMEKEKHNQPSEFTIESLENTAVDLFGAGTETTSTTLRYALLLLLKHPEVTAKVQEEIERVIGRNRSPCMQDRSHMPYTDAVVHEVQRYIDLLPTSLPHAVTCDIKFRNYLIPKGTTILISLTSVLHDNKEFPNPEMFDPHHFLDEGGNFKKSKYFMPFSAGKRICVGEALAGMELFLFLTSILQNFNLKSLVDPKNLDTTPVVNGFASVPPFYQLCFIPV
measurement-kind: IC50

Request: IC50, test system Cytochrome P450 2C9 (Homo sapiens), entry CC1=C(C(=O)OCC2CCCCC2)C(c2ccc(OC(F)F)c(OCC3CC3)c2)N(C(=O)SCc2ccccc2)C(=O)N1 (stereo unspecified)
> 25 µM

====

# assay-system: UniProt Q9Y233
# Sequence (Q9Y233 whole entry): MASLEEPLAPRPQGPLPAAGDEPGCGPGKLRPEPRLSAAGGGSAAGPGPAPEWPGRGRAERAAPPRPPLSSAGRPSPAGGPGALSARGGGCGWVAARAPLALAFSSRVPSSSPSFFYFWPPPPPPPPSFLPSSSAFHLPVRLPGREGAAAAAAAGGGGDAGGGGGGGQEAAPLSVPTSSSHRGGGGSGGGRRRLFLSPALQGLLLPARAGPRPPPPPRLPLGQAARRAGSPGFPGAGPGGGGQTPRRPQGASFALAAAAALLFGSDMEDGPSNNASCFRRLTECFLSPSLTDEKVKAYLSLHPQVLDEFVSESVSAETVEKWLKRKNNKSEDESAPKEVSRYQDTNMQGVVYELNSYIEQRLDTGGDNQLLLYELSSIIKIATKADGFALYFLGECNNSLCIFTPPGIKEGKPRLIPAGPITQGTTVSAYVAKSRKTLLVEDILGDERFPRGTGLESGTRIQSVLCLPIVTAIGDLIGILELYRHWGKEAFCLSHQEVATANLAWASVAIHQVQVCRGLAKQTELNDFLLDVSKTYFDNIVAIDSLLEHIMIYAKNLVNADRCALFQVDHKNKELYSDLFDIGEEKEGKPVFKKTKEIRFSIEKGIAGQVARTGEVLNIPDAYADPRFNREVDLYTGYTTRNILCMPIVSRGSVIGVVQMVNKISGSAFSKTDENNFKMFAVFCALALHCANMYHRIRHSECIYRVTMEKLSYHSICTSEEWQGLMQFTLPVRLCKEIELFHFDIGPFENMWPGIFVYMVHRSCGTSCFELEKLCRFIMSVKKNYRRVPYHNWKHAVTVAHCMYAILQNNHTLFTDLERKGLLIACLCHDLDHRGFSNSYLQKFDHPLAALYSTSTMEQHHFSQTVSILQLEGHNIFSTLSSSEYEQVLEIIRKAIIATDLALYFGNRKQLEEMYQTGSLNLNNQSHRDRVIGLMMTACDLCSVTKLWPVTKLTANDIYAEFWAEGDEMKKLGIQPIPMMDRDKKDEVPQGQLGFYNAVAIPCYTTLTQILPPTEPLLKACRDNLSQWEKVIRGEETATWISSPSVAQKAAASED
measurement-kind: IC50 (nM)
Numeric answer only, unit nM assumed.

Reported IC50 for CC1=C(C(=O)OCC2CCCCC2)C(c2ccc(OC(F)F)c(OCC3CC3)c2)N(C(=O)SCc2ccccc2)C(=O)N1 (stereo unspecified) : what is it?
597

====

# assay-system: Dual specificity calcium/calmodulin-dependent 3',5'-cyclic nucleotide phosphodiesterase 1C (Homo sapiens, UniProt Q14123)
# method-description: Inhibition of PDE1C2 (147 to 531 residues) (unknown origin) using 3H-cGMP as substrate incubated for 15 mins by liquid scintillation counter analysis
Exercise: for every item that follows, state its recorded log10(IC50).
Quick note: numbers are log10 of IC50, with nM as the unit.

Reported log10(IC50) for CCNC(=O)N1C(=O)NC(C)=C(C(=O)OCC2CCCCC2)C1c1ccc(OC(F)F)c(OCC2CC2)c1 (stereo not given) : what is it?
3.67

Reported log10(IC50) for COc1ccc(C2NC(=O)NC(C)=C2C(=O)OCC2CCCCC2)cc1OC (stereo not given) : what is it?
3.56

Reported log10(IC50) for CC1=C(C(=O)OCC2CCCCC2)C(c2ccc(OC(F)F)c(OCC3CC3)c2)N(C(=S)Oc2ccccc2)C(=O)N1 (stereo not given) : what is it?
0.76

Reported log10(IC50) for COc1ccc(C2C(C(=O)OCC3CCCCC3)=C(C)NC(=O)N2C(=O)OCC2CCCCC2)cn1 (stereo not given) : what is it?
1.71

Reported log10(IC50) for COc1ccc(C2C(C(=O)OCC3CCCCC3)=C(C)NC(=O)N2C(=O)OCC2CCCCC2)cc1OC (stereo not given) : what is it?
0.77

====

# method-description: Cmax in Sprague-Dawley rat at 2.5 mg/kg,iv administration
# Format: ADME, organism-based
# conditions: in vivo
measurement-kind: Cmax (ng/mL)
Numeric answer only, unit ng/mL assumed.

Reported Cmax for CC1=C(C(=O)OCC2CCCCC2)C(c2ccc(OC(F)F)c(OCC3CC3)c2)N(C(=O)SCc2ccccc2)C(=O)N1 (stereo unspecified) : what is it?
25000
